- System: G. piotii strain Gv_17
- METHOD: Quantitative reduction in viable CFU assay in bacterial suspension
- Type: cell-based, Gardnerella piotii
- MEASUREMENT PARAMETERS: 5 hours, pH 5.0, anaerobic, 10 ul endolysin (0.2 mg/ml where possible) + 90 ul 5e7 CFU/ml, average of triplicate
ENDPOINT: log 10 of the ratio of surviving CFU for treated vs. untreated cells (log 10)
Give the number; log 10 is assumed, so skip it.

Prompt: Data request, read-out log 10 of the ratio of surviving CFU for treated vs. untreated cells, for H5B5: natural Gardnerella prophage endolysin from strain JCP7276 (protein, EL5_strain_JCP7276, natural Gardnerella prophage endolysin from strain JCP7276) MSKKGIDVSEWQGDIDFNAVKASGVEFVIIRAGYGIGCKDKWFEQNYRKAKTAGLDVGAYWYSYANSSSEAAEEAQSCANMLSGKSFEYPVYFDLEEKSQLNRGRAFCDSLITGFCSKLEACGYYAGFYTSLSTANNLVSAHVRNRYALWIAQWNTHCSYQGSYGLWQYSSNGSVPGVAGRVDMDYAYKDYPSIIKNAGLNGCKNGGSDQAARTSSIDEVAREVINGAWGNGNERKQRLTQAGYDYTSVQNKVNKLLGVKACRKSVDELAREVIRGTWGNGNERKNRLTQAGYDYDTVQKRVNELL
Completion: −0.1

Prompt: Data request, read-out log 10 of the ratio of surviving CFU for treated vs. untreated cells, for H3B3: natural Gardnerella prophage endolysin from strain Gv18-4 (protein, EL3_strain_Gv18-4) MSKKGIDVSVWQGDIDFNSVKASGVEFVIIRAGYGIGHKDKWFEENYRKAKTAGLDVGSYWYSYASSAGEASEEAQSCVNILSGKSFEYPIYFDLEEKSQLNRGRDFCDSLITSFCNKLEACGYYAGFYTSLSVANNLVSSHVRDRYALWIAQWNTHCSYQGSYGLWQYSSSGSVNGIAGRVDMDYAYVDYPSVIKNAGLNGYQNGGSYTAPQTSSIDEVAREVINGDWGNGNDRKNRLISAGYDYASVQNKVNELLGVKAYRKSVDELAREVIRGTWGNGSMRKHRLTQAGYDYDAVQKRVNELL
Completion: −1.5

Prompt: Data request, read-out log 10 of the ratio of surviving CFU for treated vs. untreated cells, for H1B1: natural Gardnerella prophage endolysin from strain HMP9231 (protein, EL1_strain_HMP9231, natural Gardnerella prophage endolysin from strain HMP9231) MSKKGIDVSEWQGDIDFNAVKASGVEFVIIRAGYGIGCKDKWFEQNYRKAKTAGLDVGAYWYSYANSGFEAAEEAQSLMNMLSGKSFEYPVYFDLEEKSQLNRGRAFCDSLITSFCNKLEACGYYAGFYTSLSTANNLVSAHVRNRYALWIAQWNTHCNYQGSYGLWQYSSNGSVPGVAGRVDMDYAYVDYPSIIKNAGLNGCKNGGSDQAARTSSIDEVAREVINGAWGNGSTRKQRLTSAGYDYASVQNKVNELLGVKACRKSVDELAREVIRGAWGNGSTRKQRLAQAGYDYDTVQKRVNELL
Completion: −0.9

Prompt: Data request, read-out log 10 of the ratio of surviving CFU for treated vs. untreated cells, for H2B2: natural Gardnerella prophage endolysin from strain Gv18-4 (protein, EL2_strain_Gv18-4) MSKRGIDVSEWQGDIDFNAVKASGVEFVIIRAGYGIGCKDKWFEQNYRKAKTCGLDVGAYWYSYANSGFEAAEEAQSCVNMLSGKSFEYPVYFDLEEKSQLNRGRAFCDSLITGFCNKLESCGYYAGFYTSLSTANNLVSAHVRNRYALWIAQWNTHCSYQGSYGLWQYSSSGSVPGVAGRVDMDYAYVDYPSIIKNVGLNGCKNGGSDQAARTSSIDEVAREVINGAWGNGNERKQRLTSAGYDYASVQNKVNELLGVKACRKSVDEIAREVIRGTWGNGSTRKQRLTQAGYDYDTVQKRVNELL
Completion: −2.5
